# protocol details: Cellular viability qHTS for adrenocortical cancer (ACC) cell line NCI-H295R (AID 1963990); further: nearly all actives have a fitted effect of over 60% in size
# setup conditions: CellTiter-Glo ATP luminescence, 48 h; series mostly up to 46.1 µM
Inconclusive results are not listed. Calls of active or inactive are those of the source. The call rests on the fitted dose curve; in most records, active means well fitted cell-killing curve with a large enough effect; inconclusive means small, poorly fitted or top-dose-only effect; inactive means flat fitted curve, though single readings scatter.
Labels: active, inactive

molecule	group label
C=CCOC(Cn1ccnc1)c1ccc(Cl)cc1Cl (stereo unspecified)	inactive
CCCCC1C(=O)NC(=O)N(C2CCCCC2)C1=O (stereo unspecified)	inactive
C[C@]12CC[C@@H]3c4ccc(OC(=O)N(CCCl)CCCl)cc4CC[C@H]3[C@@H]1CC[C@@H]2OP(=O)(O)O	inactive
CN(C)CCc1ccc(O)cc1	inactive
O=C(O)c1cc(Oc2ccc(C(F)(F)F)cc2Cl)ccc1[N+](=O)[O-]	inactive
O=C(O)C1=CCCN(CCOC(c2ccc(C(F)(F)F)cc2)c2ccc(C(F)(F)F)cc2)C1	inactive
CCOC(=O)c1c(C(C#N)=CN)c2ccc(Cl)c(Cl)c2n1C	inactive
CN(C)c1cc2c(cc1Sc1nc3c(N)nccc3n1CCNCC(C)(C)C)OCO2	active
CC(C(=O)c1ccccc1)N(C)C (stereo unspecified)	inactive
COc1cc(CC(C)N)cc(OC)c1OC (stereo unspecified)	inactive
O=C1OC(CCN2CCCCC2)OC1(c1ccccc1)c1ccccc1 (stereo unspecified)	active

###

# protocol details: Quantitative highthroughput screen to assess conditional lethalithy of SEM cells grown in RPMI1640 with unreated serum (RPMI+s) (AID 1963883); further: nearly all actives have a fitted effect of over 35% in size;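 on viability: 100% = DMSO wells and 0% = empty wells without cells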
# setup conditions: SEM B-ALL cells, CellTiter-Glo viability, 48 h; series mostly up to 45.8 µM
Results filed as inconclusive are left out. The source made the active and inactive calls. Calls come from the whole dose curve; as a rule, active = well fitted cell-killing curve with a large enough effect; inconclusive = small, poorly fitted or top-dose-only effect, or effect the other way; inactive = no such curve, though single readings can be large or run the other way.
Classes used: yes (1) (active), no (0) (inactive)

compound	group label
CC[C@@H]1[C@@H](C)O[C@@](O)([C@@H](C)[C@H](O)[C@H](C)[C@H]2OC(=O)C=CC=C[C@@H](C)[C@@H]([C@@H](C)[C@@H](O)[C@H](C)[C@@]3(O)C[C@H](O[C@H]4C[C@H](O)[C@H](O)[C@H](C)O4)[C@H](CC)[C@@H](C)O3)OC(=O)C=CC=C[C@@H]2C)C[C@H]1O[C@H]1C[C@H](O)[C@H](O)[C@H](C)O1	yes (1)
CN(C)[C@@H]1C(=O)C(C(N)=O)=C(O)[C@@]2(O)C(=O)C3=C(O)c4c(O)cccc4[C@@](C)(O)[C@H]3C[C@@H]12	no (0)
Clc1ccccc1C(c1ccccc1)(c1ccccc1)n1cccn1	no (0)
C[C@]12CC[C@@H]3c4ccc(OC(=O)N(CCCl)CCCl)cc4CC[C@H]3[C@@H]1CC[C@@H]2OP(=O)(O)O	yes (1)
O=C(O)C(=O)c1cn(Cc2ccccc2)c2ccc(-c3ccc(OC(F)(F)F)cc3)cc12	no (0)
CCOc1ccccc1-n1c(C(C)N2CCN(C(=O)COc3ccc(Cl)cc3)CC2)nc2ccccc2c1=O (stereo unspecified)	yes (1)
CN1C(=O)COc2c(C(=O)NC3CN4CCC3CC4)cc(Cl)cc21 (stereo unspecified)	no (0)
C[C@@H]1CC[C@H]2[C@@H](C)C(=O)O[C@@H]3O[C@@]4(C)CC[C@H]1[C@]32OO4	no (0)
C[C@@H]1[C@@H](CC(C[C@H]2O[C@@H]3O[C@]4(C)CC[C@@H]5[C@H](C)CC[C@@H]([C@H]2C)[C@@]35OO4)C[S+](=O)([O-])c2ccc(COC(=O)N(C)C)cc2)O[C@@H]2O[C@]3(C)CC[C@H]4[C@H](C)CC[C@@H]1[C@@]24OO3 (stereo partly specified)	yes (1)
CCCC(C)(COC(N)=O)COC(=O)NC(C)C (stereo unspecified)	no (0)
C[C@]12CCC(=O)C=C1CC[C@@H]1[C@H]3CC[C@](C)(O)[C@@]3(C)CC[C@@H]12	no (0)
C[C@@]12OC(=O)[C@]1([C@@H](O)[C@@H]1C=CCCC1)NC(=O)[C@H]2CCCl	yes (1)
N[C@@H](Cc1ccc(N(CCCl)CCCl)cc1)C(=O)O	yes (1)
COc1cc2cc(c1Cl)N(C)C(=O)C[C@H](OC(=O)C(C)C)[C@]1(C)O[C@H]1[C@H](C)[C@@H]1C[C@@](O)(NC(=O)O1)[C@H](OC)C=CC=C(C)C2	no (0)
CC1(N2CCC(n3c([C@@H]4CCCNC4)nc4ccccc43)CC2)CCCCCCC1	no (0)
COC[C@H]1OC(=O)c2coc3c2[C@@]1(C)C1=C(C3=O)C2CCC(=O)[C@@]2(C)C[C@H]1OC(C)=O (stereo partly specified)	no (0)
C[C@@H]1[C@@H](C(=O)C[C@H]2O[C@@H]3O[C@]4(C)CC[C@@H]5[C@H](C)CC[C@@H]([C@H]2C)[C@@]35OO4)O[C@@H]2O[C@]3(C)CC[C@H]4[C@H](C)CC[C@@H]1[C@@]24OO3	yes (1)
CO[C@H]1CCC(O[C@H]2C[C@H]([C@]3(C)CC[C@]4(C[C@H](O)[C@@H](C)[C@@H]([C@@H](C)C=C(C)C(=O)[C@H](C)C[C@H](C)C(=O)O)O4)O3)O[C@]3(O[C@@H]([C@H]4O[C@@](O)(CO)[C@H](C)C[C@H]4C)C[C@H]3C)[C@H]2C)O[C@H]1C (stereo partly specified)	yes (1)
O=S(=O)(F)Cc1ccccc1	no (0)
CC(C)N[C@@H]1CCn2c(=O)[nH]c3cccc(c32)[C@@H]1O	no (0)
CCOC(=O)c1c(C(C#N)=CN)c2ccc(Cl)c(Cl)c2n1C	yes (1)
CC(C)(O)C(=O)Nc1ccc([N+](=O)[O-])c(C(F)(F)F)c1	no (0)
C[C@]12CC[C@H]3[C@@H](CCC4=CC(=O)CC[C@@]43C)[C@H]1CC[C@H]2O	no (0)
C[C@@H]1C[C@@H]([C@H](O)CC2CC(=O)NC(=O)C2)C(=O)[C@@H](C)C1	yes (1)
C[C@]12CC[C@H](O)CC1=CC[C@H]1[C@H]3CCC(=O)[C@@]3(C)CC[C@@H]12	no (0)
CCC1(c2ccc(N)cc2)CCC(=O)NC1=O (stereo unspecified)	no (0)
Cc1ccccc1-n1c(Cn2cnc3c(N)ncnc32)nc2cccc(C)c2c1=O	yes (1)
O=C(NCC1CCOCC1)c1cnc(Nc2ccc(Cl)cc2Cl)nc1C(F)(F)F	no (0)
CCN(CC)C(=O)c1ccc(C2=CC3(CCNCC3)Oc3cccc(O)c32)cc1	no (0)
CC(=Cc1csc(C)n1)[C@@H]1C[C@H]2O[C@]2(C)CCC[C@H](C)[C@@H](O)[C@@H](C)C(=O)C(C)(C)[C@@H](O)CC(=O)O1	no (0)
O=C(O)CNC(=O)c1c(O)c2ccccc2n(Cc2ccccc2)c1=O	no (0)

###

# protocol details: Viability qHTS for spleen associated tyrosine kinase inhibitor (SYKi) drug resistant MV4-11 cells (AID 1963824); further: nearly all actives have a fitted effect of over 35% in size
# setup conditions: SYKi-resistant MV4-11 viability, CellTiter-Glo, 72 h; series mostly up to 45 µM
Results filed as inconclusive are left out. The source made the active and inactive calls. The call rests on the fitted dose curve; in most records, active means well fitted cell-killing curve with a large enough effect; inconclusive means small, poorly fitted or top-dose-only effect, or effect the other way; inactive means no such curve, though single readings can be large or run the other way.
Outcomes: active, inactive

compound	group label
CCCCn1cc(C(=O)c2cccc3ccccc23)c2ccccc21	active
COC1CC(=O)C23C(=O)NC(CC(C)C)C2C(C)=C(C)C(OO)C3/C=C(\C)CCC(O)C1O (stereo unspecified)	active
C/C=C(\C)C(=O)OC1C2C3(C)CCC(OC4CC(OC)C(OC5OC(C)C(O)C(OC)C5O)C(C)O4)CC3CCC23OC32CCC(C(C)=O)C2(C)C1OC(=O)/C(C)=C/C (stereo unspecified)	active
C[C@]12CCC(=O)C=C1CC[C@@H]1[C@@H]2[C@@H](O)C[C@]2(C)C(=O)CC[C@@H]12	inactive
CCN1CC2(COC)C3[C@@H](OC)C4C1C3(C1C[C@]3(O)[C@H](OC(=O)c5ccccc5)C1[C@]4(OC(C)=O)[C@@H](O)[C@@H]3OC)[C@H](OC)C[C@H]2O (stereo partly specified)	inactive
CN(C)[C@@H]1C(=O)C(C(N)=O)=C(O)[C@@]2(O)C(=O)C3=C(O)c4c(O)cccc4[C@@](C)(O)[C@H]3C[C@@H]12	active
CO[C@@H]1[C@@H](O)[C@@H](O[C@H]2CC[C@]3(C=O)C4CC[C@]5(C)[C@@H](C6=CC(=O)OC6)CC[C@]5(O)[C@@H]4CC[C@H]3C2)O[C@@H](C)[C@H]1O[C@@H]1O[C@H](CO[C@@H]2O[C@H](CO)[C@@H](O)[C@H](O)[C@H]2O)[C@@H](O)[C@H](O)[C@H]1O (stereo partly specified)	active
O=C(NC(O)C(Cl)(Cl)Cl)NC(O)C(Cl)(Cl)Cl (stereo unspecified)	inactive
C/C(=C\c1csc(C)n1)[C@@H]1C[C@@H]2O[C@@H]2CCC[C@H](C)[C@H](O)[C@@H](C)C(=O)C(C)(C)[C@@H](O)CC(=O)O1	active
CCN1CCN(C(=O)Cc2ccc(Nc3ncc(F)c(Nc4ccc(C(=O)Nc5ccccc5Cl)cc4)n3)cc2)CC1	active
Cc1cccc(C)c1NC1=NCCCS1	inactive
O=[N+]([O-])c1c2ccccc2cc2ccccc12	active
C[C@H](N)C(=O)c1ccccc1	inactive
Clc1ccccc1C(c1ccccc1)(c1ccccc1)n1cccn1	active
C[C@@H]1O[C@@H](O[C@@H]2C=C3CC[C@@H]4[C@H](CC[C@]5(C)[C@@H](c6ccc(=O)oc6)CC[C@]45O)[C@@]3(C)CC2)[C@H](O)[C@H](O)[C@H]1O	active
COC1C(O)C(C)OC(OC2C(CO)O[C@@H](O[C@@H]3CC4CCC5C(CC[C@]6(C)[C@@H](C7=CC(=O)OC7)CC[C@]56O)[C@@]4(C)[C@H](OC(C)=O)C3)C(O)C2O)C1O (stereo partly specified)	active
